Molecular target: T1, PTPN4-PDZ (residues G499-N604) (human), P29074
T1 chain: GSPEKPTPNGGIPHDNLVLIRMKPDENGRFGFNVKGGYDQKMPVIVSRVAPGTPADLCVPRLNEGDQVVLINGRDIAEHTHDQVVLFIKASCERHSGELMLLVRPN
Experiment: NMR titration, 15N-labeled PTPN4-PDZ with unlabeled peptide
pKd: −log10 of the molar value.
pKd values for the binders below.
experimental.endpoint: pKd

binder: SWESYRSGGEIRL (modifications not checked) [EIRL-13]
reported.value: 2.93
//
binder: LNLGNDPDRGTSI (modifications not checked) [GluD2-13]
reported.value: 3.89
//
binder: SNRRVYKKMPSIESDV (modifications not checked) [GluN2A-16]
reported.value: 4.38

Cited source: patent US20140302123A1
